# system under test: UniProt:Q8NEB9
# protocol description: Human VPS34 enzyme assay (Adapta TR-FRET ADP detection)
# Type: biochemical
# assay setup: IC50 range class
IC50 listing for selected compounds.

>  <compound>
Cc1c(-c2ccnc(Nc3ccnc(C4CC4)n3)c2)cnc(Cl)c1C(=O)O [Compound I-369]

>  <system under test>
UniProt:Q8NEB9

>  <IC50>
10 to 50 nM

$$$$
>  <compound>
CC(=O)Nc1cc(-c2cnc(N)c(S(N)(=O)=O)c2)ccn1 [Compound I-61]

>  <system under test>
UniProt:Q8NEB9

>  <IC50>
10 to 50 nM

$$$$
>  <compound>
CCc1ncc(-c2ccnc(NC(C)=O)c2)cc1NS(=O)(=O)c1ccc(F)cc1F [Compound I-201]

>  <system under test>
UniProt:Q8NEB9

>  <IC50>
< 10 nM

$$$$

# input Hi! What's the reported IC50 for Cc1nccc(Nc2cc(-c3cnc(C)c(C(=O)N4CCCC4)c3)ccn2)n1 [Compound I-315] on UniProt:Q8NEB9?
# output 10 to 50 nM

# input What do we get for CC(=O)Nc1cc(-c2cnc(Cl)c(NS(=O)(=O)N3CCCC3)c2C)ccn1 [Compound I-488] ?
# output 10 to 50 nM

# input What do we get for CC(=O)Nc1cc(-c2cnc(C)c(N(C)C(=O)c3ccc(F)cc3F)c2)ccn1 [Compound I-398] ?
# output > 100 nM

# input What do we get for Cc1nccc(Nc2cc(-c3cnc(C)c(C(=O)N4CCC4)c3)ccn2)n1 [Compound I-304] ?
# output 10 to 50 nM

# input What do we get for Cc1nccc(Nc2cc(-c3cnc(N(C)C)c(C(=O)N(C)C45CC(C4)C5)c3)ccn2)n1 [Compound I-306] ?
# output 10 to 50 nM

----------
IC50 listing for selected molecules.
# system under test: human VPS34 (Homo sapiens (Human))
# protocol description: Human VPS34 enzyme assay (Adapta TR-FRET ADP detection)
# Type: biochemical
# assay setup: IC50 range class

Please review the following examples before continuing.
>  <mol smiles>
CC(=O)Nc1cc(-c2cnc(C)c(C(=O)N(C)C)c2)ccn1

>  <IC50>
0.05 to 0.1 µM

$$$$
>  <mol smiles>
CC(=O)Nc1cc(-c2cnc(N)c(C(=O)NCC3CC3)c2)ccn1

>  <IC50>
0.01 to 0.05 µM

$$$$
>  <mol smiles>
CC(=O)Nc1cc(-c2cnc(N)c(S(=O)(=O)Cc3ccccc3C(F)(F)F)c2)ccn1

>  <IC50>
0.01 to 0.05 µM

$$$$
>  <mol smiles>
CC(=O)Nc1cc(-c2cncc(S(=O)(=O)N3CCN(C)CC3)c2)ccn1

>  <IC50>
0.01 to 0.05 µM

$$$$
>  <mol smiles>
COc1ccc(S(=O)(=O)Nc2cc(-c3ccnc(NC(C)=O)c3)cnc2C)c(F)c1

>  <IC50>
< 0.01 µM

$$$$

# input Any idea what IC50 was measured for CC(=O)Nc1cc(-c2cnc(N)c(S(=O)(=O)NCC3CC3)c2C)ccn1 ?
# output 0.05 to 0.1 µM

# input What do we get for CC(=O)Nc1cc(-c2cnc3[nH]ncc3c2)ccn1 ?
# output 0.05 to 0.1 µM

# input What do we get for CC(=O)Nc1cc(-c2cnc(Cl)c(NS(=O)(=O)c3ccc(Cl)cc3Cl)c2C)ccn1 ?
# output 0.01 to 0.05 µM

----------
IC50 listing for selected compounds.
# system under test: human VPS34 (Homo sapiens (Human), UniProt Q8NEB9)
# Sequence (Q8NEB9 whole entry): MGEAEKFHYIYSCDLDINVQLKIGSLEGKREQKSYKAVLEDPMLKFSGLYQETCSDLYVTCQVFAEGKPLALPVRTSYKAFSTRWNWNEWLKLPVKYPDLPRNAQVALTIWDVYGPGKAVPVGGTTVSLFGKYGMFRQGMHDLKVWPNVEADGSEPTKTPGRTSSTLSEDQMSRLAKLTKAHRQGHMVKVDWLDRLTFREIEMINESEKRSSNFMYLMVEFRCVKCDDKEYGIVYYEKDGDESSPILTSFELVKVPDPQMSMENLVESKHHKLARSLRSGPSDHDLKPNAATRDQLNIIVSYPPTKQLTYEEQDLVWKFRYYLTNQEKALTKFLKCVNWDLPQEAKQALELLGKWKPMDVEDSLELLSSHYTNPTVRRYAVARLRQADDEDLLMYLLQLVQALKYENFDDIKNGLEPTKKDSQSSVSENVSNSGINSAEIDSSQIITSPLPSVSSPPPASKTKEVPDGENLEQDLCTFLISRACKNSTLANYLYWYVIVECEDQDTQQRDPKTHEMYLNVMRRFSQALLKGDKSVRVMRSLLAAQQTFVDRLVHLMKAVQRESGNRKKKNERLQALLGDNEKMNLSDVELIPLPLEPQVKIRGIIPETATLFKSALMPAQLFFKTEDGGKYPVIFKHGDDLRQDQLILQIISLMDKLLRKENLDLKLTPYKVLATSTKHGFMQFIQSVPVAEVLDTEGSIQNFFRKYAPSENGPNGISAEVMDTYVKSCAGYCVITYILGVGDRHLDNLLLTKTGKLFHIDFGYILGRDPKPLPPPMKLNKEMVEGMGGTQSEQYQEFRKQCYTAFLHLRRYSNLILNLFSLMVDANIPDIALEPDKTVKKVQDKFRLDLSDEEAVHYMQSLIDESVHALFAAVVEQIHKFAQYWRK
# protocol description: Human VPS34 enzyme assay (Adapta TR-FRET ADP detection)
# Format: biochemical
# assay setup: IC50 range class

>  <mol smiles>
CC(=O)Nc1cc(-c2cnc(C)c(OS(=O)(=O)c3ccc(F)cc3F)c2)ccn1

>  <IC50>
10 to 50 nM

$$$$

# input Any idea what IC50 was measured for CC(=O)Nc1cc(-c2cnc(N)c(N3CCCC3=O)c2)ccn1 ?
# output > 100 nM

# input What do we get for Cc1nccc(Nc2cc(-c3cncc(C(=O)N4CC(F)(F)C4)c3)ccn2)n1 ?
# output 10 to 50 nM

# input What do we get for O=C(c1cncc(-c2ccnc(Nc3ccnc(C4CC4)n3)c2)c1)N1CC(F)(F)C1 ?
# output 10 to 50 nM

# input What do we get for CC(=O)Nc1cc(-c2cnc(Cl)c(NS(=O)(=O)c3ccc(Br)cc3F)c2C)ccn1 ?
# output 10 to 50 nM

# input What do we get for CC(=O)Nc1cc(-c2cnc(Cl)c(N3CCCS3(=O)=O)c2C)ccn1 ?
# output 10 to 50 nM

# input What do we get for CC(=O)Nc1cc(-c2cncc(N3CCCS3(=O)=O)c2)ccn1 ?
# output 50 to 100 nM

# input What do we get for CNc1ncc(-c2ccnc(NC(C)=O)c2)cc1N1CCCS1(=O)=O ?
# output < 10 nM

----------
# Tested on: NCI-H1650 cell line
# protocol description: Cellular anti-proliferative assay of VPS34 inhibitors in combination with a second therapeutic agent (Cell Titer Glo, 72 hrs)
# Format: cell-based, human
# assay setup: NCI H-1650; in combination with CO-1686 (Compound Y)
endpoint name: Combination Index
Answer with the value's number alone.

Please review the following examples before continuing.
>  <compound>
CC(=O)Nc1cc(-c2cnc(C)c(NS(=O)(=O)c3ccc(F)cc3F)c2)ccn1 [Compound I-41]

>  <system under test>
NCI-H1650 cell line

>  <Combination Index>
0.58

$$$$
>  <compound>
Cc1c(-c2ccnc(NC(=O)C3CC3)c2)cnc(Cl)c1NS(=O)(=O)c1ccc(F)cc1F [Compound I-308]

>  <system under test>
NCI-H1650 cell line

>  <Combination Index>
0.36

$$$$
>  <compound>
Cc1nccc(Nc2cc(-c3cnc(Cl)c(NS(=O)(=O)c4ccc(F)cc4F)c3C)ccn2)n1 [Compound I-299]

>  <system under test>
NCI-H1650 cell line

>  <Combination Index>
0.43

$$$$

Consider the record given below.
# input Any idea what Combination Index was measured for Cc1nccc(Nc2cc(-c3cnc(C)c(C(=O)N4CCC4)c3)ccn2)n1 [Compound I-304] ?
# output 0.47

----------
# system under test: human VPS34 (Homo sapiens (Human))
# protocol description: Human VPS34 enzyme assay (Adapta TR-FRET ADP detection)
# Format: biochemical
# assay setup: IC50 range class
endpoint name: IC50

>  <molecule>
CNc1ncc(-c2ccnc(NC(C)=O)c2)cc1C(=O)NC12CC(C1)C2 [Compound I-160]

>  <IC50>
10 to 50 nM

$$$$
>  <molecule>
COC(=O)Nc1cc(-c2cnc(N)c(S(=O)(=O)N(C)C)c2)ccn1 [Compound I-171]

>  <IC50>
< 10 nM

$$$$
>  <molecule>
CC(=O)Nc1cc(-c2cnc3c(c2)S(=O)(=O)N(C24CC(C2)C4)CCO3)ccn1 [Compound I-376]

>  <IC50>
10 to 50 nM

$$$$

Consider the record given below.
# input Hi! What's the reported IC50 for CC(=O)Nc1cc(-c2cnc(C)c(NS(=O)(=O)c3cc(Cl)sc3Cl)c2)ccn1 [Compound I-465] on human VPS34 (Homo sapiens (Human))?
# output 10 to 50 nM

----------
# system under test: human VPS34 (Homo sapiens (Human))
# protocol description: Human VPS34 enzyme assay (Adapta TR-FRET ADP detection)
# Assay type: biochemical
# assay setup: IC50 range class
pIC50: −log10 of the molar value.
endpoint name: pIC50

Please review the following examples before continuing.
>  <compound>
CC(=O)Nc1cc(-c2cncc(S(=O)(=O)NC34CC5CC(CC(C5)C3)C4)c2)ccn1

>  <pIC50>
7.30 to 8.00

$$$$
>  <compound>
CC(=O)Nc1cc(-c2cnc3[nH]ccc3c2)ccn1

>  <pIC50>
7.30 to 8.00

$$$$
>  <compound>
CC(=O)Nc1cc(-c2cnc(C)c(NS(=O)(=O)c3ccc(C)cc3F)c2)ccn1

>  <pIC50>
> 8.00

$$$$
>  <compound>
Cc1ncc(-c2ccnc(NC(=O)C3CC3(F)F)c2)cc1NS(=O)(=O)c1ccc(Cl)cc1F (centres unmarked)

>  <pIC50>
> 8.00

$$$$
>  <compound>
Cc1ncc(-c2ccnc(NC(=O)OCc3ccn(C)n3)c2)cc1NS(=O)(=O)c1ccc(F)cc1F

>  <pIC50>
> 8.00

$$$$

# input Any idea what pIC50 was measured for Cc1nc(Nc2cc(-c3cnc(Cl)c(NS(=O)(=O)c4ccc(F)cc4F)c3C)ccn2)ccc1C#N ?
# output > 8.00

# input What do we get for CC(=O)Nc1cc(-c2cnc(N)c(S(=O)(=O)NC34CC(C3)C4)c2)ccn1 ?
# output > 8.00

# input What do we get for Cc1nccc(Nc2cc(-c3cnc(Cl)c(NS(=O)(=O)c4ccc(F)cc4F)c3C)ccn2)n1 ?
# output 7.30 to 8.00

# input What do we get for CC(=O)Nc1cc(-c2cnc(C)c(NS(=O)(=O)c3cn(C)nc3C(F)(F)F)c2)ccn1 ?
# output > 8.00

# input What do we get for CC(=O)Nc1cc(-c2cncc(C(=O)C3CC3)c2)ccn1 ?
# output < 7.00

# input What do we get for COc1ncc(-c2ccnc(NC(C)=O)c2)c(C)c1NS(=O)(=O)c1ccc(F)cc1F ?
# output 7.30 to 8.00

# input What do we get for CC(=O)Nc1cc(-c2cnc(Cl)c(NS(=O)(=O)c3ccccc3Cl)c2C)ccn1 ?
# output 7.30 to 8.00

# input What do we get for CC(=O)Nc1cc(-c2cnc(C)c(NS(=O)(=O)c3ccc(C(F)(F)F)cc3Cl)c2)ccn1 ?
# output > 8.00

# input What do we get for Cc1ncc(-c2ccnc(NC(=O)C3CC3)c2)cc1NS(=O)(=O)c1ccc(Cl)cc1F ?
# output 7.30 to 8.00

# input What do we get for CC(=O)Nc1cc(-c2cnc(Cl)c(NS(=O)(=O)N(C)C)c2C)ccn1 ?
# output 7.30 to 8.00

# input What do we get for CC(=O)Nc1cc(-c2cncc(NC(=O)c3ccc(F)cc3F)c2)ccn1 ?
# output < 7.00

# input What do we get for CC(=O)Nc1cc(-c2cnc(C)c(Nc3nc4ccccc4o3)c2)ccn1 ?
# output < 7.00

# input What do we get for CC(=O)Nc1cc(-c2cnc(N)c(S(=O)(=O)Nc3cccnc3)c2)ccn1 ?
# output > 8.00
